All values here come from patent EP2441755A1.

Form field: IC50 (one value per entry).
tested on: LAD2 cells; experiment: LAD2 cells assay (degranulation, β-hexosaminidase release); assay type: cell-based; conditions: Homo sapiens, 0.5 h; IgE-sensitized LAD2 cells, 30 min with compound, activated with 125 ng/ml streptavidin; released β-hexosaminidase; read-out: LAD2IC50
Write the value in µM as a bare number.

Known results for molecules:
{"columns": ["Smiles Str", "Unit Info", "IC50"],
 "data": [
  ["CNc1cc(Nc2cnccn2)nc(-c2ccnc(N3CCNCC3)c2)c1", "µM", 0.19],
  ["O=C(Nc1cc(Nc2cnccn2)nc(-c2ccnc(N3CCNCC3)c2)c1)c1cccc(C(F)(F)F)c1", "µM", 0.31]
]}

q: Checklist item: IC50 tested on LAD2 cells, entry O=C(Nc1cc(Nc2cnccn2)nc(-c2ccnc(N3CCNCC3)c2)c1)c1ccc2c(c1)OCO2 , value?
a: 0.23
